The measurements presented in this section are drawn from paper PMC10397247.

targetOfAssay: T1, O5-bH
T1 chain: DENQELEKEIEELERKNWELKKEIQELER
protocolDescription: two-hybrid library CCNG1;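 also: natural log of median RNA to DNA barcode read ratio; higher means stronger binding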
measurementKind: interaction score

a: DKIQELKKKNEELKREIWELEKKNQELKR [O16-bH]
b: DENQELEKKNEELKRKIWELKKKIQELKR [O2-bH]
c: DEIQELEKKIEELKRENWELEKENQELER [O3-bH]
Order the records, beginning with the lowest interaction score and ending with the highest. Give the order by naming the labels one after another as requested.
b, c, a
